SYSTEM NAME: Peroxisome proliferator-activated receptor alpha (Homo sapiens, UniProt Q07869)
Sequence (Q07869 whole entry): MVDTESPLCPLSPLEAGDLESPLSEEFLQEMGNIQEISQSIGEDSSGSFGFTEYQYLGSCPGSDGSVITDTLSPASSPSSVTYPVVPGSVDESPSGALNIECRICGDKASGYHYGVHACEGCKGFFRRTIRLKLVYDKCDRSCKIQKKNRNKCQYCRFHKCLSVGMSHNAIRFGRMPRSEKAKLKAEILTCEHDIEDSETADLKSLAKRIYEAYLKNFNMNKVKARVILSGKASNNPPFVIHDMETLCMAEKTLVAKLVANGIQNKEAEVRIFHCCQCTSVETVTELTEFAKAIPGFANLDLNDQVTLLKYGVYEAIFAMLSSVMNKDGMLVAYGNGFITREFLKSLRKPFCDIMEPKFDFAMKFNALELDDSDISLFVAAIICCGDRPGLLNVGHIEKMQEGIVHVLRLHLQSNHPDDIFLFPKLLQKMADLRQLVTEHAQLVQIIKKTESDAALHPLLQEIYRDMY
METHOD NOTES: Affinity On-target Cellular interaction: (Reporter gene assay (HEK293T cells)) EUB0001144a PPARA
Type: functional, cell-based, HEK-293T
Parameters: mode of action Agonist, recommended concentration 1 uM
ASSAY METRIC: EC50 (nM)
Lab book: enter the figure in nM, no units written.

**Query** Given "CCO[C@@H](Cc1ccc(OCCc2ccc(OS(C)(=O)=O)cc2)cc1)C(=O)O" , state its recorded EC50.
**Result** 290

====

SYSTEM NAME: Peroxisome proliferator-activated receptor gamma (Homo sapiens, UniProt P37231)
Sequence (P37231 whole entry): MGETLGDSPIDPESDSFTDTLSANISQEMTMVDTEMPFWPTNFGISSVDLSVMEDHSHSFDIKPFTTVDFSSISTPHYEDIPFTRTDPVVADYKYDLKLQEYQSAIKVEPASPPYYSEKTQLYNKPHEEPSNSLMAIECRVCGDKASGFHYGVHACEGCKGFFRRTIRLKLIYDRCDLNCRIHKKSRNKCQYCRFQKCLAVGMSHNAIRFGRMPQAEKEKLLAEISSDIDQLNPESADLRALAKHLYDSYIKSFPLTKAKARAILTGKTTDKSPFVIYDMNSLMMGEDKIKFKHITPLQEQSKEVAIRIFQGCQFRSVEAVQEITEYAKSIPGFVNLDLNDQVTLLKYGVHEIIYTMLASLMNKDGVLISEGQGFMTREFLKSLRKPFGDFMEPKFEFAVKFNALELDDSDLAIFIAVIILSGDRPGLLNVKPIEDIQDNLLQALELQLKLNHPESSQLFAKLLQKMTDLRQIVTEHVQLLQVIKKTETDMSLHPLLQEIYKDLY
METHOD NOTES: Affinity On-target Cellular interaction: (Reporter gene assay (HEK293T cells)) EUB0001150a PPARG
ASSAY METRIC: IC50 (µM)
Express your answer in µM, writing the number without its unit.

**Query** Requested read-out IC50, target or system Peroxisome proliferator-activated receptor gamma (Homo sapiens, UniProt P37231), entry "COC(=O)c1sccc1S(=O)(=O)Nc1ccc(Nc2ccccc2)cc1OC"
**Result** 7.6

All values here come from ChEMBL document CHEMBL5723379.
